// ΔTm lookup, one value per entry
System: Nucleic Acid
measurement-notes: Evaluated for thermal denaturation at pH 3.9 against poly(A)-poly(U) synthetic RNA oligonucleotide
Assay type: nucleic-acid assay
measurement-label: ΔTm

{"columns": ["smiles-entry", "measurement-label", "readout-value"],
 "data": [
  ["CN1CCN(CCCN2CCN(C)CC2)CC1", "ΔTm", 11],
  ["C1CCN(C2CCN(CCCN3CCC(N4CCCCC4)CC3)CC2)CC1", "ΔTm", 22.2],
  ["C1CCN(C2CCN(CCN3CCN(CCN4CCC(N5CCCCC5)CC4)CC3)CC2)CC1", "ΔTm", 34.7]
]}

* * *

Tested on: Nucleic Acid
measurement-notes: Evaluated for thermal denaturation at pH 4.9 against poly(A)-poly(U) syntheticRNA oligonucleotide
Type: nucleic-acid assay
// ΔTm lookup, one value per entry
measurement-label: ΔTm

{"columns": ["compound", "tested-target", "measurement-label", "readout-value"],
 "data": [
  ["C1CCN(C2CCN(CCN3CCN(CCN4CCC(N5CCCCC5)CC4)CC3)CC2)CC1", "Nucleic Acid", "ΔTm", 22.9],
  ["N#CC1CCN(CCCN2CCC(C#N)CC2)CC1", "Nucleic Acid", "ΔTm", 0],
  ["c1cc(CN2CCN(Cc3ccc(CN4CCNCC4)cc3)CC2)ccc1CN1CCNCC1", "Nucleic Acid", "ΔTm", 15.7],
  ["OCC1CCN(CCCN2CCC(CO)CC2)CC1", "Nucleic Acid", "ΔTm", 0.5],
  ["C1CCN(CCCN2CCCCC2)CC1", "Nucleic Acid", "ΔTm", 0],
  ["OCC1CCCN(CCCN2CCCC(CO)C2)C1 (stereo unspecified)", "Nucleic Acid", "ΔTm", 0.9]
]}
